Assay: NCI Yeast Anticancer Drug Screen. Data for the mec2-1 strain (AID 157)
Details: S. cerevisiae mec2-1 strain, at 50.0 µM (retest, dose inferred, filed as 5.0)
Compounds without any hit were thinned out: in the full panel of roughly 79,000, 15% have a hit. Activity calls are given as the source filed them. Rule as the data show it: active = growth inhibition above about 70%; inactive = the rest.
Outcomes: active, inactive

• c1ccc2c3ccn4ccc5c6ccccc6[nH]c5c4c-3nc2c1 = active
• Fc1ccc(NC(=S)SCc2ccco2)cc1 = active
• Cc1ccc(-c2oc(C=Nc3ccccc3)c([N+](=O)[O-])c2-c2ccc(C)cc2)cc1 = active
• COc1nc(N)c(N=O)c(OCc2ccccc2)n1 = active
• COc1ccc(C(=O)c2cc(Br)ccc2O)cc1 = inactive
• CCCCCCCCCC1OCC(C)O1 (configuration not stated) = inactive
• COCCn1cc(F)c(=O)[nH]c1=O = inactive
• CCCCCCC/C=C\C(=O)O = inactive
• S=c1nc(C(c2ccccc2)c2ccccc2)[nH][nH]1 = inactive
• O=C(O)CCCc1ccc2c(c1)CC1(C2)Cc2ccc(CCCC(=O)O)cc2C1 = inactive
• CN=C(NC1CCCCC1)c1ccc(NC(=O)c2ccc(C(=O)Nc3ccc(C(=NC)NC4CCCCC4)cc3)cc2)cc1 = inactive
• O=C(O)c1ccccc1-c1ccccc1C(=O)Nc1ccc2c(c1)Cc1cc(F)ccc1-2 = active
• Cc1ccc(C)c(C(=O)CCN)c1 = inactive
• CCCCCCCCCCCCCCC[N+]1(CC)CCCCC1 = active
• COc1ccc(N=Cc2ccccc2O)cc1 = inactive
• NN(c1ccccc1)c1cccc2ccccc12 = active
• COC(=O)c1c(C)cccc1C1CN=NC12Cc1ccccc1C2=O (configuration not stated) = inactive
• c1ccc(N=Nc2ccc3ccccc3c2)cc1 = inactive
• CC(=O)c1c2c(cc3c1CC1(C3)Cc3cc4c(c(C(=O)O)c3C1)CCC4)CCC2 (configuration not stated) = active
• CC1([N+](=O)[O-])C(=O)C2(N3CCCCC3)CCCC2C1c1ccccc1 (configuration not stated) = inactive
• C/C(CCn1[nH]c(=O)ccc1=O)=N\Nc1ccc([N+](=O)[O-])cc1[N+](=O)[O-] = active
• CCOCCOc1ccc(OCCOCC)cc1 = inactive
• CN(C)C(=S)Oc1ccc(C(C)(C)C)cc1 = inactive
• OC(CBr)c1cc(-c2ccccc2)nc2ccccc12 (configuration not stated) = active
• COc1ccc(OCC(O)CN2CCN(c3cccc(Cl)c3)CC2)cc1 (configuration not stated) = inactive
• C=CCN1/C(=C\C=C\c2ccc3cc(C)ccc3[n+]2CC=C)C=Cc2cc(C)ccc21 = active
• Nc1ccc2c(c1)[nH]c(=O)c1c(Cl)cccc12 = inactive
• CCCCCCCCCCCCCCNC(=O)CCC(NC(=O)c1ccc(N(C)Cc2cnc3nc(N)nc(N)c3n2)cc1)C(=O)NCCCCCCCCCCCCCC (configuration not stated) = active
• CC(C)(C)C1=CC(N2CCCCC2)(C(C)(C)C)C=C(C(C)(C)C)C1=O = inactive
• N#CC(C(=O)C(=O)Nc1ccc(Cl)c(Cl)c1)c1c(Cl)cccc1Cl (configuration not stated) = inactive
• CSc1ccc(/C=C2\CN(C)C/C(=C\c3ccc(SC)cc3)C2=O)cc1 = inactive
• C1CCC2[N-]CC3CCCCC3[N-]CC3CCCCC3[N-]CC3CCCCC3[N-]CC2C1.[Cl][Fe]([Cl])([Cl])[Cl].[Fe+6] (configuration not stated) = active
• N#CC(Br)(C#N)Cc1ccccc1 = active
• Cc1cc2ccc(N)nc2[nH]c1=O = inactive
• C=CCCCCCCCCC(=O)CCCCCCCCC=C = inactive
• O=S(Nc1ccccc1Br)c1ccccc1 (configuration not stated) = inactive
• O=C(O)c1ccc2c(O)c3ccccc3c(O)c2c1 = inactive
• O=Cc1c(O)ccc2ccccc12.[Cu+2] = inactive
• Oc1ccc(Br)cc1C=Nc1c(NC2CCCCC2)oc2ccc(Br)cc12 = inactive
• COc1cc2cnc(-c3ccccc3)cc2cc1OC = active
• CCOC(=O)/C(=C\c1ccc(C)cc1)C(C)=O = active
• COc1cc2c(cc1OC)C(N(C)C)C(c1ccccc1)=C2Cl (configuration not stated) = active
• Cc1nc(Nc2ccc(Cl)cc2)sc1C(=O)NNC(=O)C(=O)NN = inactive
• COC(=O)c1nc(=S)[nH]c(C(=O)OC)c1C(=O)C(C)(C)C = inactive
• CC(=O)Nc1ccc(-c2nnc(SCC(=O)Nc3ccc(Cl)cc3Cl)o2)cc1 = inactive
• Cc1ccc([S@](=O)c2occc2C=O)cc1 = active
• COc1cccc2c1C(=O)c1c(O)c3c(c(O)c1C2=O)CC(O)(C(=O)CO)CC3OC1CC(N)C(I)C(C)O1 (configuration not stated) = active
